Target: AKT1 WT (Homo sapiens, UniProt P31749)
Sequence (P31749 whole entry): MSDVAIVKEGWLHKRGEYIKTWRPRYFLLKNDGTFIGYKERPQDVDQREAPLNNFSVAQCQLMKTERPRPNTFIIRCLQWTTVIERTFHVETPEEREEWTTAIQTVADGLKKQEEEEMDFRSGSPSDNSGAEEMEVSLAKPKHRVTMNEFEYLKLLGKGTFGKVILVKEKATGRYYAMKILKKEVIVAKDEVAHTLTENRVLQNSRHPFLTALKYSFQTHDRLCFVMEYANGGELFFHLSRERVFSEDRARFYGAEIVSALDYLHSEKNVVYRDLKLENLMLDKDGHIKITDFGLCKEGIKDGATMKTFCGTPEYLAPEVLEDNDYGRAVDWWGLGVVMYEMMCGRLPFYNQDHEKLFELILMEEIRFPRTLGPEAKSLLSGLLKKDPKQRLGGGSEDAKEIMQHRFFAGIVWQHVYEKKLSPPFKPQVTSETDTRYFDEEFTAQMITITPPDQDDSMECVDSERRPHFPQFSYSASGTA
Assay: Live cell AKT1 WT target engagement by NanoBRET competitive probe displacement
Conditions: HEK293 cells transfected with kinase-NanoLuciferase fusion, 2 h at 37° C.
Rule: IC50 below 0.1 µM gives Yes, anything at or above gives No.

Given the entry C=CC(=O)N1CCN(NC2CCc3cc(-n4c(-c5cccnc5N)nc5ccc(-n6ccc(F)n6)nc54)ccc32)CC1 (single isomer, unassigned) [Example 200] , would its reported IC50 be below 0.1 µM?
No

Given the entry C=CC(=O)N1CCC(N[C@H]2CCc3cc(-n4c(-c5cccnc5N)nc5ccc(C6CC6)nc54)ccc32)C(C)C1 (single isomer, unassigned) [Example 232] , would its reported IC50 be below 0.1 µM?
No

Given the entry C=CC(=O)N1CCC(N[C@H]2CCc3cc(-n4c(-c5cccnc5N)nc5ccc(-n6cccn6)nc54)ccc32)C(C)(F)C1 (stereo partly drawn) [Example 308] , would its reported IC50 be below 0.1 µM?
No

Given the entry C=CC(=O)N1CCC(N[C@H]2CCc3cc(-n4c(-c5cccnc5N)nc5ccc(-n6ccc(C7CCC7)n6)nc54)ccc32)CC1 , would its reported IC50 be below 0.1 µM?
No

Given the entry C=CC(=O)N1CCN(N(C)C2CCc3cc(-n4c(-c5cccnc5N)nc5ccc(-n6cccn6)nc54)ccc32)CC1 (single isomer, unassigned) [Example 179] , would its reported IC50 be below 0.1 µM?
No

Given the entry C=CC(=O)N1CCC(N[C@H]2CCc3cc(-n4c(-c5cccnc5N)nc5c(OC)cc(-n6cccn6)nc54)ccc32)CC1 , would its reported IC50 be below 0.1 µM?
Yes

Given the entry C=CC(=O)N1CCN(CC2CCc3cc(-n4c(-c5cccnc5N)nc5ccc(-n6cccn6)nc54)ccc32)CC1 (stereo not drawn) , would its reported IC50 be below 0.1 µM?
Yes

Given the entry C=CC(=O)N1CCC(N[C@H]2CCc3cc(-n4c(-c5cccnc5N)nc5ccc(C6CC6)nc54)ccc32)C[C@H]1C (single isomer, unassigned) [Example 211] , would its reported IC50 be below 0.1 µM?
No

Given the entry C=CC(=O)N1CCC(N[C@H]2CCc3cc(-n4c(-c5cccnc5N)nc5ccc(C6CC6)nc54)ccc32)CC1 , would its reported IC50 be below 0.1 µM?
Yes

Given the entry C=CC(=O)N1CCC(N[C@H]2CCc3cc(-n4c(-c5cccnc5N)nc5ccc(-n6nccn6)nc54)ccc32)C[C@H]1C (single isomer, unassigned) [Example 261] , would its reported IC50 be below 0.1 µM?
No

Given the entry C=CC(=O)N1CCC(N[C@@H]2c3ccc(-n4c(-c5cccnc5N)nc5ccc(-n6ccc(F)n6)nc54)cc3CC2F)CC1 (single isomer, unassigned) [Example 237] , would its reported IC50 be below 0.1 µM?
No

Given the entry C=CC(=O)N1CCC(N[C@H]2CCc3cc(-n4c(-c5cccnc5N)nc5ccc(-n6cccn6)nc54)ccc32)C[C@H]1C(F)F (single isomer, unassigned) , would its reported IC50 be below 0.1 µM?
Yes

Given the entry C=CC(=O)N1CCC(N[C@H]2CCc3cc(-n4c(-c5cccnc5N)nc5ccc(-c6ncco6)nc54)ccc32)CC1 , would its reported IC50 be below 0.1 µM?
Yes

Given the entry CC(C)=CC(=O)N1CCC(N[C@H]2CCc3cc(-n4c(-c5cccnc5N)nc5ccc(-n6cccn6)nc54)ccc32)CC1 , would its reported IC50 be below 0.1 µM?
No

Given the entry C=CC(=O)N1CCC(N[C@H]2CCc3cc(-n4c(-c5cccnc5N)nc5cc(-c6ccncc6)cnc54)ccc32)CC1 , would its reported IC50 be below 0.1 µM?
No

Given the entry C=CC(=O)N1CCC(N[C@H]2CCc3cc(-n4c(-c5cccnc5N)nc5ccc(-c6cccnc6)nc54)ccc32)CC1 , would its reported IC50 be below 0.1 µM?
Yes

Given the entry C=CC(=O)N1CCC(N[C@H]2CCc3cc(-n4c(-c5cccnc5N)nc5ccc(N6CC[C@@H](F)C6)nc54)ccc32)CC1 , would its reported IC50 be below 0.1 µM?
No

Given the entry C=CC(=O)NCCc1ccccc1C(=O)N[C@H]1CCc2cc(-n3c(-c4cccnc4N)nc4ccc(-n5cccn5)nc43)ccc21 , would its reported IC50 be below 0.1 µM?
No

Given the entry C=CC(=O)N1CCC(N[C@H]2CCc3cc(-n4c(-c5cccnc5N)nc5ccc(C(F)(F)F)nc54)ccc32)CC1 , would its reported IC50 be below 0.1 µM?
No

Given the entry C=CC(=O)N1CCC(N[C@H]2CCc3cc(-n4c(-c5cccnc5N)nc5ccc(C6CC6)nc54)ccc32)C(F)C1 (single isomer, unassigned) [Example 177] , would its reported IC50 be below 0.1 µM?
No

Given the entry N#CN1CCC(N[C@H]2CCc3cc(-n4c(-c5cccnc5N)nc5ccc(-n6cccn6)nc54)ccc32)CC1 , would its reported IC50 be below 0.1 µM?
No

Given the entry C=CC(=O)N1CCC(N[C@@H]2c3ccc(-n4c(-c5ccccc5)nc5ccc(-c6ccccc6)nc54)cc3CC2F)CC1 (single isomer, unassigned) [Example 325] , would its reported IC50 be below 0.1 µM?
No

Given the entry C=C(F)C(=O)Nc1cnn(C)c1C(=O)N[C@H]1CCc2cc(-n3c(-c4cccnc4N)nc4ccc(-n5cccn5)nc43)ccc21 , would its reported IC50 be below 0.1 µM?
No
